- measured_on: UniProt P22756
- Sequence (P22756 whole entry): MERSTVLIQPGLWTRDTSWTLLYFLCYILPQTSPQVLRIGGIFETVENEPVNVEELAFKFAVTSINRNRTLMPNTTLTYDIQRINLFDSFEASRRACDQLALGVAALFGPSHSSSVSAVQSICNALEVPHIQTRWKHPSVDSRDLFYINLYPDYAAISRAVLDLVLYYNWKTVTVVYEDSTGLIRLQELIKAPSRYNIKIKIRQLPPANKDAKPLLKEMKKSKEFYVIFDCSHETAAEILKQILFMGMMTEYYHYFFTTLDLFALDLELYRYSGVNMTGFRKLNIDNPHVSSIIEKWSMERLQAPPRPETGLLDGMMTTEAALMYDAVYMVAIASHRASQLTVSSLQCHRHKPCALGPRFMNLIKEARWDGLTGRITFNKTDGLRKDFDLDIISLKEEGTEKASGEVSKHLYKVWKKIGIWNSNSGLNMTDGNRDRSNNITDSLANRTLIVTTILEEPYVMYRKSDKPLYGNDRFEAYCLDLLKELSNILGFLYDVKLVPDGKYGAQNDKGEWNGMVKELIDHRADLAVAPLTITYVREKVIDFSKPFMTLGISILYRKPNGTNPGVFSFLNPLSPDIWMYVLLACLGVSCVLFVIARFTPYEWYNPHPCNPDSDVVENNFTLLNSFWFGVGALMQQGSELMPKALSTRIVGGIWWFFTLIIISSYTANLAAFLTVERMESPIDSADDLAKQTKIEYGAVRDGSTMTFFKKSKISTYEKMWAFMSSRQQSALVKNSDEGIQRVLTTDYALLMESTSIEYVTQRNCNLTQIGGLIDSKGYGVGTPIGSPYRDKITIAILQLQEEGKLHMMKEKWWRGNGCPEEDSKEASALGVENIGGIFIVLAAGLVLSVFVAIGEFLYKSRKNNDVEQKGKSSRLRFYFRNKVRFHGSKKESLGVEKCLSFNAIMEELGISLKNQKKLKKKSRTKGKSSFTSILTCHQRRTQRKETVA
parameter_measured: pKi
Lab note — pKi values are minus log10 of concentrations in M.

Exam item: Consider the molecule O=C1N=c2cc(N(O)O)c(-n3ccnc3)cc2=NC1=O [CAS_3035216] and give its measured pKi.
Marked response: 5.66

* * *

- measured_on: Glutamate receptor 3 (Rattus norvegicus, UniProt P19492)
- Sequence (P19492 whole entry): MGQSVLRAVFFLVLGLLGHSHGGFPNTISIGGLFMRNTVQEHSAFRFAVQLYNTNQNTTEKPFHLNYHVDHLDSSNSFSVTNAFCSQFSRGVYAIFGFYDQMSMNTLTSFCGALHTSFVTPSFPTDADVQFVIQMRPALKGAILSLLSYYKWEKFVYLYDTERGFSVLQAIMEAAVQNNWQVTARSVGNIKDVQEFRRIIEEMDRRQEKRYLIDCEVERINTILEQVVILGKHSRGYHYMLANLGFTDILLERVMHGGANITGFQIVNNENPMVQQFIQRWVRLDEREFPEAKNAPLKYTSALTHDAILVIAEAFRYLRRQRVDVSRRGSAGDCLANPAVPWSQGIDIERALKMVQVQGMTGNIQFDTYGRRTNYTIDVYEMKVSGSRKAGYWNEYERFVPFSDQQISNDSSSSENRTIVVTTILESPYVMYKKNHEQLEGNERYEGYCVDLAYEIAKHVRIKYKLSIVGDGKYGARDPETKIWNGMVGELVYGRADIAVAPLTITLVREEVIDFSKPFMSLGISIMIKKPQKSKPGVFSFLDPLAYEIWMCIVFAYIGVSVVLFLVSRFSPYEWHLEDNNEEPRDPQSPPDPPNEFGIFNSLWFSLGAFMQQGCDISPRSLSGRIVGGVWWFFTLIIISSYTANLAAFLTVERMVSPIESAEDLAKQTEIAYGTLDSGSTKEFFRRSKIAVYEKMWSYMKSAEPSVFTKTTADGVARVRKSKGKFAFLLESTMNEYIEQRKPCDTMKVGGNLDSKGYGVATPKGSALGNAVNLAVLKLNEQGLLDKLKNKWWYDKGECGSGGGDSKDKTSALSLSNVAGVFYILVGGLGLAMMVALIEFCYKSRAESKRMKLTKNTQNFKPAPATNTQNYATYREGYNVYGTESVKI
parameter_measured: pKi
Lab note — pKi values are minus log10 of concentrations in M.

Exam item: Consider the compound O=C1N=c2cc(N(O)O)c(-n3ccnc3)cc2=NC1=O and give its measured pKi.
Marked response: 7.08
